Test Summary: physchem
Assay type: physicochemical
Conditions: read-out: Kin. Sol
// reported solubility kinetic for each item listed
API: value field is a number in µM; no unit string.

These recorded examples may help you get a feel for the data.
[[record]]
smiles_notation = "Fc1c(F)c(F)c(-c2nc3cncnc3s2)c(F)c1F"
measurement_units = "µM"
result_number = 103

[[record]]
smiles_notation = "CN(C)c1ncnc2c1nc(-c1c(F)c(F)c(F)c(F)c1F)n2C"
measurement_units = "µM"
result_number = 26

[[record]]
smiles_notation = "CCOC(=O)c1nc(-c2ccccc2)oc1NC(=O)c1c(F)c(F)c(F)c(F)c1F"
measurement_units = "µM"
result_number = 21


In: // query solubility kinetic value for entry CN(C)c1ncnc2oc(-c3c(F)c(F)c(F)c(F)c3F)nc12
Out: 1.0

====

Format: in vitro ADME, mouse
Conditions: mouse, microsomes
// reported Mouse micro Cl for each item listed
API: value field is a number in mLmin/g; no unit string.

[[record]]
compound = "COC(=O)c1c(NC(=O)c2c(F)c(F)c(F)c(F)c2F)sc2c1CCCCC2 [TP2, reference compound]"
property_label = "Mouse micro Cl"
result_number = 15


In: // query Mouse micro Cl value for entry CCOC(=O)c1nc(C)oc1NC(=O)c1cc(F)c(F)c(F)c1F
Out: 5.1

In: // query Mouse micro Cl value for entry CNc1ncnc2oc(-c3c(F)c(F)c(F)c(F)c3F)nc12
Out: 0.5

In: // query Mouse micro Cl value for entry CCOC(=O)c1c(NC(=O)c2c(F)c(F)c(F)c(F)c2F)sc(C(N)=O)c1C [TP4, reference compound]
Out: 13

In: // query Mouse micro Cl value for entry COC(=O)c1cnccc1NC(=O)c1c(F)c(F)c(F)c(F)c1F
Out: 20

====

Test Summary: physchem
Assay type: physicochemical
Conditions: kinetic solubility in water; read-out: Kin. Sol
Please mark 1 if the recorded solubility kinetic is equal to or greater than 200 µM, and -1 if it falls below.

Please review the entries below; each comes with its answer.
[[record]]
smiles_notation = "CCOC(=O)c1nc(C)oc1NC(=O)c1cc(F)c(F)c(F)c1"
qualitative_label = 1

[[record]]
smiles_notation = "COC(=O)c1nn(C)cc1NC(=O)c1c(F)c(F)c(F)c(F)c1F"
qualitative_label = -1

[[record]]
smiles_notation = "CCOC(=O)c1nc(C)oc1NC(=O)c1c(F)c(F)cc(F)c1F"
qualitative_label = -1


In: solubility kinetic >= 200 µM for CN(C)c1ncnc2sc(-c3c(F)c(F)c(F)c(F)c3F)nc12.Cl ?
Out: -1

====

// reported pIC50 for each item listed
System: HepG2 cells
Test Summary: HepG2 cytotoxicity
Conditions: Homo sapiens, HepG2, read-out: HepG2 inhibitory concentration (IC50)
pIC50: −log10 of the molar value.

These recorded examples may help you get a feel for the data.
[[record]]
molecule = "CCOC(=O)c1nc(C)oc1NC(=O)c1c(F)cc(F)c(F)c1F [Compound 27]"
property_label = "pIC50"
result = "< 4.00"

[[record]]
molecule = "CN(C)c1ncnc2oc(-c3c(F)c(F)c(F)c(F)c3F)nc12 [Compound 6]"
property_label = "pIC50"
result = "< 4.00"

[[record]]
molecule = "CCOC(=O)c1nc(N(C)C)oc1NC(=O)c1c(F)c(F)c(F)c(F)c1F [Compound 32]"
property_label = "pIC50"
result = "< 4.00"

[[record]]
molecule = "COC(=O)c1c(C)noc1NC(=O)c1c(F)c(F)c(F)c(F)c1F [Compound 22]"
property_label = "pIC50"
result = "< 4.00"

[[record]]
molecule = "CCOC(=O)c1nc(C)oc1NCc1c(F)c(F)c(F)c(F)c1F [Compound 29]"
property_label = "pIC50"
result = "< 4.00"

[[record]]
molecule = "CCOC(=O)c1nc(CN(C)C)oc1NC(=O)c1c(F)c(F)c(F)c(F)c1F [Compound 35]"
property_label = "pIC50"
result = "< 4.00"

[[record]]
molecule = "CN(C)c1ncnc2sc(-c3c(F)c(F)cc(F)c3F)nc12 [Compound 2, CN(C)c1ncnc2sc(nc12)-c1c(c(cc(c1F)F)F)F]"
property_label = "pIC50"
result = "< 4.00"

[[record]]
molecule = "Cc1nc(C(=O)N(C)C)c(NC(=O)c2c(F)c(F)c(F)c(F)c2F)o1 [Compound 40]"
property_label = "pIC50"
result = "< 4.00"

[[record]]
molecule = "Cc1nnc(-c2nc(C)oc2NC(=O)c2c(F)c(F)c(F)c(F)c2F)o1 [Compound 42]"
property_label = "pIC50"
result = "< 4.00"

[[record]]
molecule = "CCN(CC)c1ncnc2sc(-c3c(F)c(F)c(F)c(F)c3F)nc12 [Compound 8]"
property_label = "pIC50"
result = "< 4.00"


In: // query pIC50 value for entry COC(=O)c1c(NC(=O)c2c(F)c(F)c(F)c(F)c2F)sc2c1CCCCC2 [TP2, reference compound]
Out: 4.89

In: // query pIC50 value for entry Fc1c(F)c(F)c(-c2nc3c(N4CCOCC4)ncnc3o2)c(F)c1F [Compound 10]
Out: 4.31

In: // query pIC50 value for entry CCOC(=O)c1c(NC(=O)c2c(F)c(F)c(F)c(F)c2F)sc(C(N)=O)c1C [TP4, reference compound]
Out: 5.37

In: // query pIC50 value for entry CCOC(=O)c1nc(-c2ccccc2)oc1NC(=O)c1c(F)c(F)c(F)c(F)c1F [Compound 34]
Out: 4.03

In: // query pIC50 value for entry Cc1noc(-c2nc(C)oc2NC(=O)c2c(F)c(F)c(F)c(F)c2F)n1 [Compound 43]
Out: < 4.00

In: // query pIC50 value for entry COC(=O)c1cccnc1NC(=O)c1c(F)c(F)c(F)c(F)c1F [Compound 17]
Out: < 4.00

In: // query pIC50 value for entry COC(=O)c1ccncc1NC(=O)c1c(F)c(F)c(F)c(F)c1F [Compound 18]
Out: < 4.00

In: // query pIC50 value for entry Cc1nc(C(=O)O)c(NC(=O)c2c(F)c(F)c(F)c(F)c2F)o1 [Compound 38]
Out: < 4.00

====

Test Summary: physchem
Format: physicochemical
Conditions: pH 7.4, aqueous buffer, kinetic from dmso stock
Property Label: solubility kinetic
Include the unit after the number when you answer.

These recorded examples may help you get a feel for the data.
[[record]]
compound = "CN(C)c1ccnc2oc(-c3c(F)c(F)c(F)c(F)c3F)nc12 [Compound 13]"
property_label = "solubility kinetic"
result = "1.6 µM"

[[record]]
compound = "CCOC(=O)c1nc(C)oc1NS(=O)(=O)c1c(F)c(F)c(F)c(F)c1F [Compound 30]"
property_label = "solubility kinetic"
result = "171 µM"

[[record]]
compound = "CCOC(=O)c1nc(CN(C)C)oc1NC(=O)c1c(F)c(F)c(F)c(F)c1F [Compound 35]"
property_label = "solubility kinetic"
result = "225 µM"

[[record]]
compound = "Oc1ncnc2oc(-c3c(F)c(F)c(F)c(F)c3F)nc12 [Compound 15, Oc1ncnc2oc(nc12)-c1c(c(c(c(c1F)F)F)F)F]"
property_label = "solubility kinetic"
result = "149 µM"

[[record]]
compound = "Cc1noc(-c2nc(C)oc2NC(=O)c2c(F)c(F)c(F)c(F)c2F)n1 [Compound 43]"
property_label = "solubility kinetic"
result = "196 µM"


In: // query solubility kinetic value for entry Fc1c(F)c(F)c(-c2nc3c(N4CCOCC4)ncnc3s2)c(F)c1F [Compound 9]
Out: 2.8 µM

In: // query solubility kinetic value for entry COC(=O)c1ccncc1NC(=O)c1c(F)c(F)c(F)c(F)c1F [Compound 18]
Out: 109 µM

In: // query solubility kinetic value for entry Cc1ncc(NC(=O)c2c(F)c(F)c(F)c(F)c2F)o1 [Compound 37, Cc1ncc(o1)NC(=O)c1c(c(c(c(c1F)F)F)F)F]
Out: 105 µM

====

// reported chromatographic logD for each item listed
Test Summary: physchem
Conditions: pH 7.4
Just the number, please, no unit after it.

These recorded examples may help you get a feel for the data.
[[record]]
smiles_notation = "CC(=O)c1nc(C)oc1NC(=O)c1c(F)c(F)c(F)c(F)c1F"
result_number = 1.2

[[record]]
smiles_notation = "CCOC(=O)c1nc(C)oc1NC(=O)c1cc(F)c(F)c(F)c1"
result_number = 2.3

[[record]]
smiles_notation = "COC(=O)c1nn(C)cc1NC(=O)c1c(F)c(F)c(F)c(F)c1F"
result_number = 2.7

[[record]]
smiles_notation = "CCOC(=O)c1nc(COC)oc1NC(=O)c1c(F)c(F)c(F)c(F)c1F"
result_number = 1.6

[[record]]
smiles_notation = "CCOC(=O)c1nc(C)oc1NC(=O)c1cc(F)c(F)c(F)c1F"
result_number = 2.5


In: // query chromatographic logD value for entry CCOC(=O)c1nc(C)oc1NCc1c(F)c(F)c(F)c(F)c1F
Out: 3.2

In: // query chromatographic logD value for entry CCOC(=O)c1c(NC(=O)c2c(F)c(F)c(F)c(F)c2F)ncn1C
Out: 2.2

In: // query chromatographic logD value for entry CCOC(=O)c1nc(C)oc1NS(=O)(=O)c1c(F)c(F)c(F)c(F)c1F
Out: 1.4

In: // query chromatographic logD value for entry CCOC(=O)c1nc(C)oc1NC(=O)c1c(F)c(F)c(F)c(F)c1F
Out: 1.8

Sourced from paper PMC11915372
